ASSAYED_SYSTEM: caspase-3 (Homo sapiens, UniProt P42574)
Construct: purchased Sigma-Aldrich (St. Louis, Mo.)
Sequence (P42574 29-175 limits assumed): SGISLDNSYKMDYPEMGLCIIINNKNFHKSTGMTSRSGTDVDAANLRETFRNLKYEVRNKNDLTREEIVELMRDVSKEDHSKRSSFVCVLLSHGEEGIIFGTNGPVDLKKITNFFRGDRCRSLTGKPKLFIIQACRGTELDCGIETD
Sequence (P42574 176-277 limits assumed): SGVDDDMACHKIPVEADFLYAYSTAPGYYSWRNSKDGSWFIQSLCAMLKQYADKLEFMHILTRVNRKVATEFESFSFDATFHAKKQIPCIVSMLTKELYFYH
PROTOCOL_SUMMARY: Enzyme inhibition assay, caspase 3 (fluorogenic Ac-DEVD-AMC)
Assay type: biochemical
CONDITION_DESCRIPTION: IC50 (nM) caspase-3, Table 6
MEASUREMENT_TYPE: IC50 (nM)
The response must be a number in nM with no trailing unit.

Let me know recorded IC50 for CN1C(=O)C(=O)c2cc(S(=O)(=O)N3CCCC3COc3cccnc3)ccc21 (stereo not shown) [Compound 21a] , thanks.
23.3

----------
ASSAYED_SYSTEM: caspase 7 (Homo sapiens, UniProt P55210)
Construct: purchased Sigma-Aldrich (St. Louis, Mo.)
Sequence (P55210 24-198 limits assumed): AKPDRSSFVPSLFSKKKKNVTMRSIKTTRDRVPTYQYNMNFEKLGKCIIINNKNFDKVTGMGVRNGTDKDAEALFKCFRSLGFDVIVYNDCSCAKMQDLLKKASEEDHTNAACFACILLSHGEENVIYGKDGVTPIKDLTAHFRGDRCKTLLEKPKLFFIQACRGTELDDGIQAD
Sequence (P55210 207-303 limits assumed): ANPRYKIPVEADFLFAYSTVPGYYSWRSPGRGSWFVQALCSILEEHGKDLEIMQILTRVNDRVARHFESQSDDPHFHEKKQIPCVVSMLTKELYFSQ
PROTOCOL_SUMMARY: Enzyme inhibition assay, caspase 7 (fluorogenic Ac-DEVD-AMC)
Format: biochemical
CONDITION_DESCRIPTION: IC50 (nM) Caspase 7, Table 1
MEASUREMENT_TYPE: IC50 (nM)
Lab book: enter the figure in nM, no units written.

1) O=C1C(=O)N(Cc2ccc(Br)cc2)c2ccc(S(=O)(=O)N3CCCC3COc3cccnc3)cc21 (centres unmarked) [Compound 28c]
6.6

Next, consider the following molecule.
Hello, please tell me recorded IC50 for this one: O=C1C(=O)N(Cc2ccc(Br)cc2)c2ccc(S(=O)(=O)N3CCCC3COc3ccccc3)cc21 (centres unmarked) [Compound 25d]
34.8

----------
Below, each entry is listed with its recorded IC50.
ASSAYED_SYSTEM: caspase 7 (Homo sapiens, UniProt P55210)
Construct: purchased Sigma-Aldrich (St. Louis, Mo.)
PROTOCOL_SUMMARY: Enzyme inhibition assay, caspase 7 (fluorogenic Ac-DEVD-AMC)
Format: biochemical
CONDITION_DESCRIPTION: Table 5; read-out: IC50 (nM) caspase-7
# number only, unit nM dropped from output

1. O=C1C(=O)N(Cc2ccc(F)cc2)c2ccc(S(=O)(=O)N3CC[C@H]3COc3ccccc3)cc21 [Compound 18e]
21
2. O=C1C(=O)N(Cc2ccccc2)c2ccc(S(=O)(=O)N3CC[C@H]3COc3ccccc3)cc21 [Compound 18b]
29.5
3. O=C1Nc2ccc(S(=O)(=O)N3CC[C@H]3COc3ccccc3)cc2C1=O
1350

Supply IC50 value. Item: O=C1C(=O)N(Cc2ccnc(F)c2)c2ccc(S(=O)(=O)N3CC[C@H]3COc3ccccc3)cc21 [Compound 18h]
135

Give the reported IC50 for this compound. O=C1C(=O)N(Cc2ccc(F)nc2)c2ccc(S(=O)(=O)N3CC[C@H]3COc3ccccc3)cc21 [Compound 18g]
17

Provide only the value of recorded IC50 for CN1C(=O)C(=O)c2cc(S(=O)(=O)N3CC[C@H]3COc3ccccc3)ccc21 [Compound 18a]
362
